# Tested on: transient receptor potential cation channel C4 beta (TRPC4), mouse
# Assay comment: TRPC4 cation channel opening, second retest – cell-based, second round, Fluo4, HEK293 TRPC4beta/mu-opioid, 1 µM, confirmation (AID 2461)
# Applied conditions: Fluo4 calcium fluorescence, at 1 µM
The source made the active and inactive calls.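 Rule for the calls: active = primary screen active and over 50% activation in each of two duplicate runs; inactive = the rest.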
Outcome codes: YES = active, NO = inactive

{"Compound": "NC(=S)N/N=C1/CCSc2ccc3ccccc3c21", "Assigned class": "NO"}
{"Compound": "O=C(CSc1nc2ccccc2c(=O)n1CCCO)N1CCc2ccccc21", "Assigned class": "NO"}
{"Compound": "Clc1ccc(C[n+]2cc(-c3ccccc3)n3c2CCC3)cc1Cl", "Assigned class": "NO"}
{"Compound": "Cc1cccc(NC(=O)c2cc([N+](=O)[O-])ccc2N2CCN(C)CC2)c1", "Assigned class": "NO"}
{"Compound": "CN(CC1CCCN(CCc2cccc(C(F)(F)F)c2)C1)C(=O)c1cc2ccccc2o1 (centres undefined)", "Assigned class": "NO"}
{"Compound": "O=C(CNc1ccc(Br)cc1)c1ccc(O)cc1", "Assigned class": "NO"}
{"Compound": "Clc1cccc(OCCN2CCNCC2)c1", "Assigned class": "YES"}
{"Compound": "COc1ccc(CCN(C)C(=O)C2CCCN(C3CCN(Cc4ccccc4)CC3)C2)cc1OC (centres undefined)", "Assigned class": "YES"}
{"Compound": "Cc1ccc(/C=N/NC(=O)NC2CCCCC2)o1", "Assigned class": "NO"}
{"Compound": "COc1cc(/C=C2\\SC(=S)N(NS(=O)(=O)c3ccc(C)cc3)C2=O)cc(OC)c1OC", "Assigned class": "NO"}
{"Compound": "CC(COc1ccccc1)N1CCC(CO)(Cc2ccccc2)CC1 (centres undefined)", "Assigned class": "NO"}
{"Compound": "CC(=O)c1ccc(N2CCN(C(=O)CCS(=O)(=O)c3ccc4c(c3)NC(=O)CS4)CC2)cc1", "Assigned class": "NO"}
{"Compound": "COc1ccc(C(=O)c2no[n+]([O-])c2C(=O)c2ccc(OC)cc2)cc1", "Assigned class": "NO"}
{"Compound": "CCN(CC)c1ccc(CNc2nc3ccccc3n2CCN2CCCCC2)cc1", "Assigned class": "NO"}
{"Compound": "Cc1ccc2nc(C(=O)N3CCc4c([nH]c5ccccc45)C3c3ccccn3)cn2c1 (centres undefined)", "Assigned class": "NO"}
{"Compound": "Cc1cccc2nc(CSc3ccc(Cl)cc3)cn12", "Assigned class": "NO"}
{"Compound": "CC(C)CCn1c(Sc2nc3ccccc3o2)nc2c1c(=O)[nH]c(=O)n2C", "Assigned class": "NO"}
{"Compound": "Cc1ccc(Cn2c(Cc3ccccc3)nc3ccccc32)cc1", "Assigned class": "NO"}
{"Compound": "C=CCn1c(SCCN2CCCCC2)nc2c1c(=O)[nH]c(=O)n2C", "Assigned class": "NO"}
{"Compound": "Cc1ccc(-c2csc3ncnc(NCCN4CCOCC4)c23)cc1", "Assigned class": "NO"}
{"Compound": "CN(C)C(CNC(=O)c1ccc2nc[nH]c2c1)c1ccccc1 (centres undefined)", "Assigned class": "NO"}
{"Compound": "CCc1nc2ccccc2n1Cc1ccccc1OC", "Assigned class": "NO"}
{"Compound": "CCCCN1/C(=C/c2ccc3ccccc3[n+]2CC)Sc2ccccc21", "Assigned class": "NO"}
{"Compound": "O=C(Cn1nc(-c2ccccc2)ccc1=O)NCCN1CCN(Cc2ccccc2)CC1", "Assigned class": "NO"}
{"Compound": "Cc1cccc(N2CCN(C(=O)C3(S(=O)(=O)c4ccc(Cl)cc4)CC3)CC2)c1C", "Assigned class": "NO"}
{"Compound": "COc1cc(OC)cc(C(=O)NC(=S)NNC(=O)Cc2cccs2)c1", "Assigned class": "NO"}
{"Compound": "COCCn1c(SCC(=O)Nc2ccccc2OC)nc2c([nH]c3ccccc32)c1=O", "Assigned class": "NO"}
{"Compound": "COC(=O)c1cc(N2CCN(C)CC2)nc2ccccc12", "Assigned class": "NO"}
{"Compound": "CCOc1cc2[nH]c(=S)n(C3CC3)c(=O)c2cc1OCC", "Assigned class": "NO"}
{"Compound": "CC1CCN(CC(O)COCCC23CC4CC(CC(C4)C2)C3)CC1 (centres undefined)", "Assigned class": "NO"}
{"Compound": "Cc1cccn2c(CNCCc3ccccn3)c(C(=O)N3CCOCC3)nc12", "Assigned class": "YES"}
{"Compound": "C=CCn1c(=N)n(CC(O)COc2ccccc2OC)c2ccccc21 (centres undefined)", "Assigned class": "NO"}
{"Compound": "CCSc1ccccc1C(=O)NCCc1ccccc1", "Assigned class": "NO"}
{"Compound": "COc1ccc(-c2nn(-c3ccccc3C)cc2CNC(C)c2cn(C)nc2C)cc1F (centres undefined)", "Assigned class": "YES"}
{"Compound": "Cc1ccc2cc(CN(CCN3CCOCC3)C(=O)NCc3ccccc3)c(=O)[nH]c2c1C", "Assigned class": "NO"}
{"Compound": "COc1ccccc1C(=O)NNC1=C(C(=O)C(F)(F)F)CCC1", "Assigned class": "NO"}
{"Compound": "O=C1CCSc2ccc(Cl)cc2N1Cc1ccc(Cl)cc1", "Assigned class": "NO"}
{"Compound": "O=C(Nc1ccncc1)c1ccc(Cl)c(S(=O)(=O)N2CCc3ccccc32)c1", "Assigned class": "NO"}
{"Compound": "Cc1ccc(-n2c(SCc3cc(=O)n4ccsc4n3)nnc2-c2cccnc2)c(C)c1", "Assigned class": "NO"}
{"Compound": "CN(CCOc1ccc(Br)cc1)CC(O)c1ccccc1 (centres undefined)", "Assigned class": "NO"}
{"Compound": "Cn1cc(-c2nc3ccccc3[nH]2)c2ccccc21", "Assigned class": "NO"}
{"Compound": "O=Cc1cc(N=Nc2ccccc2Cl)ccc1O", "Assigned class": "NO"}
{"Compound": "O=C(C[n+]1cccc(CNC(=O)c2ccc(OC(F)F)cc2)c1)Nc1ccc(SC(F)F)cc1", "Assigned class": "NO"}
{"Compound": "Clc1ccc2[nH]c3c(c2c1)CNCC3", "Assigned class": "NO"}

====

# Measured on: Short transient receptor potential channel 4 (Mus musculus)
# Assay comment: blockers of DAMGO-evoked TRPC4 calcium flux – cell-based, second round, Fluo4, HEK293 TRPC4beta/mu-opioid, 1 µM, confirmation (AID 2637);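 for inhibition: percent of integrated ratio relative to wells lacking test compound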
# Applied conditions: at 1 µM; stronger effect = higher value
Calls of active or inactive are those of the source.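 The calls were made as follows: active = calcium signal ratio cut to more than 3 SD under the fully stimulated control mean yet still positive, in both repeats and the primary screen; inactive = the rest.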
Parameter: inhibition

{"Compound": "CC1CC(C)CN(CCCNC(=O)Cn2cccc2C(=O)c2ccccc2)C1 (stereo not drawn)", "Result": "inactive"}
{"Compound": "CCOc1cc(CNCCCN2CCOCC2)cc(Br)c1OCC(=O)Nc1cccc(C(F)(F)F)c1", "Result": "40% (active)"}
{"Compound": "O=c1c(Cc2ccccc2)c(O)ccn1CCc1cnc[nH]1", "Result": "inactive"}

====

# Test system: TRPC4 (mouse), co-expressed with 5HT1a in HEK293
# Assay comment: enhancement of serotonin-evoked TRPC4 response – cell-based, second counter screen, HEK293 TRPC4/5HT1a, Fluo-4, counter-screen for TRPC4 potentiator project, confirmation (AID 434979)
# Applied conditions: Fluo-4 calcium flux, at 10 µM, serotonin added at its EC20 dose
Activity calls are given as the source filed them.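 The calls were made as follows: active = signal rise over 3 SD above mean of control wells given weak agonist, in both repeats and first screen; inactive = the rest.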
Labels: active, inactive

{"Smiles str": "Cc1c(N)c(C(C)(C)C)cc(C(C)(C)C)c1[N+](=O)[O-]", "Assigned class": "inactive"}
{"Smiles str": "CN1CCN(NC(=O)Nc2cc(Cl)cc(Cl)c2)CC1", "Assigned class": "inactive"}
{"Smiles str": "Cc1cc(C(C)(C)C)cc(S(=O)(=O)Nc2cccc(C(=O)O)c2)c1C", "Assigned class": "active"}
{"Smiles str": "N#Cc1c(-c2cccs2)nc(SCc2ccc(Cl)cc2)[nH]c1=O", "Assigned class": "inactive"}
{"Smiles str": "O=c1[nH][nH]c(-c2ccccc2)c1C=Nc1ccc(Cl)cc1", "Assigned class": "active"}
{"Smiles str": "Nc1nn2c(C(F)(F)F)cc(=O)[nH]c2c1N=Nc1cccc(F)c1", "Assigned class": "inactive"}

====

# Test system: TRPC4 beta (transient receptor potential cation channel C4), mouse
# Assay comment: potentiation of DAMGO EC20 TRPC4 response – cell-based, Fluo-4, HEK293 TRPC4beta/mu-opioid, confirmation (AID 2555)
# Applied conditions: DAMGO EC20, Fluo-4 calcium flux, at 10 µM
Activity calls are given as the source filed them.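 The calls were made as follows: active = primary screen hit whose calcium fluorescence ratio, in both repeats, exceeds the weak agonist control mean by 3 SD; inactive = the rest.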
Labels: true (1) = active, false (0) = inactive

{"Molecule": "CC1CCCN1CC#CC(O)(c1ccccc1)c1ccccc1 (centres undefined)", "Measured on": "TRPC4 beta (transient receptor potential cation channel C4), mouse", "Assigned class": "false (0)"}
{"Molecule": "CN(C(=O)CSc1nc(-c2ccc(C(C)(C)C)cc2)c(C#N)c(=O)[nH]1)C1CCCCC1", "Measured on": "TRPC4 beta (transient receptor potential cation channel C4), mouse", "Assigned class": "false (0)"}
{"Molecule": "Cc1ccc(C(=O)c2no[n+]([O-])c2C(=O)c2ccc(C)cc2)cc1", "Measured on": "TRPC4 beta (transient receptor potential cation channel C4), mouse", "Assigned class": "true (1)"}
{"Molecule": "CCCCn1c(NCCO)nc2ccccc21", "Measured on": "TRPC4 beta (transient receptor potential cation channel C4), mouse", "Assigned class": "false (0)"}
{"Molecule": "CC(=O)Nc1ccc(CN2CCCC(CO)(Cc3ccccc3C)C2)cc1 (centres undefined)", "Measured on": "TRPC4 beta (transient receptor potential cation channel C4), mouse", "Assigned class": "false (0)"}
{"Molecule": "Fc1ccc(NC(=S)NCCc2ccccn2)cc1", "Measured on": "TRPC4 beta (transient receptor potential cation channel C4), mouse", "Assigned class": "false (0)"}
{"Molecule": "Nc1c2c(nc3ccccc13)CCC2", "Measured on": "TRPC4 beta (transient receptor potential cation channel C4), mouse", "Assigned class": "false (0)"}
{"Molecule": "CCOc1c(Cl)cc(CNCC(O)c2ccccc2)cc1OC (centres undefined)", "Measured on": "TRPC4 beta (transient receptor potential cation channel C4), mouse", "Assigned class": "false (0)"}
{"Molecule": "Cc1cc(Nc2ccc3c(c2)OCCO3)c2cc(Cl)ccc2n1", "Measured on": "TRPC4 beta (transient receptor potential cation channel C4), mouse", "Assigned class": "false (0)"}
{"Molecule": "COc1ccccc1N(C(=O)c1snc(C(N)=O)c1N)C(C(=O)NC1CCCC1)c1ccc2ncccc2c1 (centres undefined)", "Measured on": "TRPC4 beta (transient receptor potential cation channel C4), mouse", "Assigned class": "false (0)"}
{"Molecule": "Cc1ccn2cc(CCNC(=O)c3ccc(Br)o3)nc2c1", "Measured on": "TRPC4 beta (transient receptor potential cation channel C4), mouse", "Assigned class": "false (0)"}
{"Molecule": "O=c1c2ccccc2nc(SCc2ccc([N+](=O)[O-])cc2)n1CCCO", "Measured on": "TRPC4 beta (transient receptor potential cation channel C4), mouse", "Assigned class": "false (0)"}
{"Molecule": "CN1CCN(c2ccc(NC(=O)c3ccc(-c4cccc([N+](=O)[O-])c4)o3)cc2)CC1", "Measured on": "TRPC4 beta (transient receptor potential cation channel C4), mouse", "Assigned class": "false (0)"}
{"Molecule": "Cc1ccc(C[n+]2cccc(-c3ccccc3)c2)c(C)c1", "Measured on": "TRPC4 beta (transient receptor potential cation channel C4), mouse", "Assigned class": "false (0)"}
{"Molecule": "O=C(Nc1nnc2n1CCS2)c1ccc(Br)o1", "Measured on": "TRPC4 beta (transient receptor potential cation channel C4), mouse", "Assigned class": "true (1)"}
{"Molecule": "CCOc1cc(/C=C2\\CN(CC)C/C(=C\\c3ccc(O)c(OCC)c3)C2=O)ccc1O", "Measured on": "TRPC4 beta (transient receptor potential cation channel C4), mouse", "Assigned class": "false (0)"}
{"Molecule": "CCN1CCCC1CNCc1ccc(Cl)cc1Cl (centres undefined)", "Measured on": "TRPC4 beta (transient receptor potential cation channel C4), mouse", "Assigned class": "true (1)"}
{"Molecule": "Cc1noc(C)c1CCC(=O)NC1CCCN(Cc2ccc(CC(C)C)cc2)C1 (centres undefined)", "Measured on": "TRPC4 beta (transient receptor potential cation channel C4), mouse", "Assigned class": "false (0)"}
{"Molecule": "CC1Cc2ccccc2N1C(=O)CSc1nc2c(c(=O)n(C)c(=O)n2C)n1Cc1ccc(F)cc1 (centres undefined)", "Measured on": "TRPC4 beta (transient receptor potential cation channel C4), mouse", "Assigned class": "true (1)"}
